Tested on: 317291-083-R-J1-PDC complex spheroids, viability
Measurement Notes: Anticancer human tumor 317291-083-R-J1-PDC patient-derived soft tissue sarcoma cell line growth inhibition [GQUAD]
Experimental Conditions: curve of first compound; second compound 1 µM
pIC50: −log10 of the molar value.
Returns true (1) if the recorded pIC50 is greater than or equal to 7, and false (0) otherwise.

Look over these answered cases.
COc1cc(C2c3cc4c(cc3C(OC3OC5COC(C)OC5C(O)C3O)C3COC(=O)C23)OCO4)cc(OC)c1O (stereo unspecified) + Cc1[nH]c2ccc(F)cc2c1-c1nc2c3cccnc3c3ncccc3c2[nH]1    false (0)
CC1COCCN1c1cc(C2(O)CC3CCC(C2)O3)c2cnn(-c3ccn[nH]3)c2n1 (stereo unspecified) + CN(C)c1ccc(Nc2c3ccc(NC(=O)CCN4CCCC4)cc3nc3cc(NC(=O)CCN4CCCC4)ccc23)cc1    true (1)
CC1COCCN1c1cc(C2(S(C)(=N)=O)CC2)nc(-c2ccnc3[nH]ccc23)n1 (stereo unspecified) + Cc1[nH]c2ccc(F)cc2c1-c1nc2c3cccnc3c3ncccc3c2[nH]1    false (0)
CCc1c2c(nc3ccc(O)cc13)-c1cc3c(c(=O)n1C2)COC(=O)[C@]3(O)CC + Cc1[nH]c2ccc(F)cc2c1-c1nc2c3cccnc3c3ncccc3c2[nH]1    true (1)
C#Cc1c(F)ccc2cc(O)cc(-c3ncc4c(N5CC6CCC(C5)N6)nc(OCC56CCCN5CC(F)C6)nc4c3F)c12 (stereo unspecified) + Cc1[nH]c2ccc(F)cc2c1-c1nc2c3cccnc3c3ncccc3c2[nH]1    false (0)

Is pIC50 at least 7? Consider CCCS(=O)(=O)Nc1ccc(F)c(C(=O)c2c[nH]c3ncc(-c4ccc(Cl)cc4)cc23)c1F + CN(C)c1ccc(Nc2c3ccc(NC(=O)CCN4CCCC4)cc3nc3cc(NC(=O)CCN4CCCC4)ccc23)cc1 true (1)

Check the entry Cc1cccc(N(C)C(=O)C2C(O)CCN2c2nc(C)cc(C(F)(F)F)c2C#N)c1 (stereo unspecified) + Cc1cnc(CNC(=O)c2c(=O)c3ccc(N4CCCN(C)CC4)nc3n3c2sc2ccccc23)cn1 : does pIC50 equal or exceed 7? true (1)

API: above_or_equal(metric=pIC50, cutoff=7) for item C#Cc1c(F)ccc2cc(O)cc(-c3ncc4c(N5CC6CCC(C5)N6)nc(OCC56CCCN5CC(F)C6)nc4c3F)c12 (stereo unspecified) + Cc1cnc(CNC(=O)c2c(=O)c3ccc(N4CCCN(C)CC4)nc3n3c2sc2ccccc23)cn1 true (1)

Test whether the compound O=C(NO)c1cnc(N2CCN(S(=O)(=O)c3ccc4ccccc4c3)CC2)nc1 + Cc1[nH]c2ccc(F)cc2c1-c1nc2c3cccnc3c3ncccc3c2[nH]1 records pIC50 of 7 or higher. true (1)

---

System: 317291-083-R-J1-PDC complex spheroids, viability
Measurement Notes: Anticancer human tumor 317291-083-R-J1-PDC cell line growth inhibition [GQUAD];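 further: spheroids exposed to compounds for one week before readout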;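 on viability, T/C: percent viability relative to DMSO vehicle wells taken as 100%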
Experimental Conditions: second compound 1 µM; first compound 1 µM; stronger effect = lower value
Decision: viability, T/C beneath 10% gives 1 (yes); viability, T/C meeting or exceeding 10% gives 0 (no).

Some solved cases for reference:
CC1COCCN1c1cc(C2(O)CC3CCC(C2)O3)c2cnn(-c3ccn[nH]3)c2n1 (stereo not given) + CN(C)c1ccc(Nc2c3ccc(NC(=O)CCN4CCCC4)cc3nc3cc(NC(=O)CCN4CCCC4)ccc23)cc1    1 (yes)
COc1ccc([C@@H](O)c2cc(-c3ncnc4cc(N5CCOCC5)ccc34)c(F)cc2Cl)nn1 + Cc1[nH]c2ccc(F)cc2c1-c1nc2c3cccnc3c3ncccc3c2[nH]1    0 (no)
CC1COCCN1c1cc(-c2ccnn2C)c2ccnc(-c3ccn[nH]3)c2n1 (stereo not given) + Cc1[nH]c2ccc(F)cc2c1-c1nc2c3cccnc3c3ncccc3c2[nH]1    0 (no)
CC(C)n1c(=O)n(C)c2cnc3cc(F)c(-c4ccc(OCCCN5CCCCC5)nc4)cc3c21 + Cc1cnc(CNC(=O)c2c(=O)c3ccc(N4CCCN(C)CC4)nc3n3c2sc2ccccc23)cn1    0 (no)

Below 10% on viability, T/C? Entry C#Cc1c(F)ccc2cc(O)cc(-c3ncc4c(N5CC6CCC(C5)N6)nc(OCC56CCCN5CC(F)C6)nc4c3F)c12 (stereo not given) + CN(C)c1ccc(Nc2c3ccc(NC(=O)CCN4CCCC4)cc3nc3cc(NC(=O)CCN4CCCC4)ccc23)cc1 0 (no)

Confirm or reject: viability, T/C of Nc1ccn(C2OC(CO)C(O)C2(F)F)c(=O)n1 (stereo not given) + Cc1cnc(CNC(=O)c2c(=O)c3ccc(N4CCCN(C)CC4)nc3n3c2sc2ccccc23)cn1 lies strictly below 10% 1 (yes)

Could you please tell me whether viability, T/C recorded for O=c1[nH]cc(F)c(=O)[nH]1 + Cc1cnc(CNC(=O)c2c(=O)c3ccc(N4CCCN(C)CC4)nc3n3c2sc2ccccc23)cn1 is less than 10%? 0 (no)

Here's an entry: O=C(NO)c1cnc(N2CCN(S(=O)(=O)c3ccc4ccccc4c3)CC2)nc1 + CN(C)c1ccc(Nc2c3ccc(NC(=O)CCN4CCCC4)cc3nc3cc(NC(=O)CCN4CCCC4)ccc23)cc1 . Is its viability, T/C below 10%? 1 (yes)

is_below(viability, T/C, 10%) for COc1ccc([C@@H](O)c2cc(-c3ncnc4cc(N5CCOCC5)ccc34)c(F)cc2Cl)nn1 + CN(C)c1ccc(Nc2c3ccc(NC(=O)CCN4CCCC4)cc3nc3cc(NC(=O)CCN4CCCC4)ccc23)cc1 ? 0 (no)

Please state whether viability, T/C is below 10% for CC(=O)O[C@H]1C(=O)[C@@]2(C)[C@H]([C@H](OC(=O)c3ccccc3)[C@]3(O)C[C@H](OC(=O)[C@H](O)[C@@H](NC(=O)c4ccccc4)c4ccccc4)C(C)=C1C3(C)C)[C@]1(OC(C)=O)CO[C@@H]1C[C@@H]2O + Cc1cnc(CNC(=O)c2c(=O)c3ccc(N4CCCN(C)CC4)nc3n3c2sc2ccccc23)cn1 0 (no)

---

Tested on: 317291-083-R-J1-PDC complex spheroids, viability
Measurement Notes: Anticancer human tumor 317291-083-R-J1-PDC cell line growth inhibition [GQUAD];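 further: spheroids exposed to compounds for one week before readout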;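 on viability, T/C: percent viability relative to DMSO vehicle wells taken as 100%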
Experimental Conditions: second compound 10 µM; first compound 1 µM; stronger effect = lower value
Measured viability, T/C by item

Here is how some molecules turned out for viability, T/C.
COc1ccc([C@@H](O)c2cc(-c3ncnc4cc(N5CCOCC5)ccc34)c(F)cc2Cl)nn1 + Cc1[nH]c2ccc(F)cc2c1-c1nc2c3cccnc3c3ncccc3c2[nH]1    54.8%
Nc1ccn(C2OC(CO)C(O)C2(F)F)c(=O)n1 (stereo not given) + Cc1[nH]c2ccc(F)cc2c1-c1nc2c3cccnc3c3ncccc3c2[nH]1    8.15%
CC(=O)O[C@H]1C(=O)[C@@]2(C)[C@H]([C@H](OC(=O)c3ccccc3)[C@]3(O)C[C@H](OC(=O)[C@H](O)[C@@H](NC(=O)c4ccccc4)c4ccccc4)C(C)=C1C3(C)C)[C@]1(OC(C)=O)CO[C@@H]1C[C@@H]2O + Cc1cnc(CNC(=O)c2c(=O)c3ccc(N4CCCN(C)CC4)nc3n3c2sc2ccccc23)cn1    1.49%
COc1cc(C2c3cc4c(cc3C(OC3OC5COC(C)OC5C(O)C3O)C3COC(=O)C23)OCO4)cc(OC)c1O (stereo not given) + Cc1[nH]c2ccc(F)cc2c1-c1nc2c3cccnc3c3ncccc3c2[nH]1    17.7%

# next molecule below
Value lookup for viability, T/C; key = O=C(c1cc(Cc2n[nH]c(=O)c3ccccc23)ccc1F)N1CCN(C(=O)C2CC2)CC1 + Cc1cnc(CNC(=O)c2c(=O)c3ccc(N4CCCN(C)CC4)nc3n3c2sc2ccccc23)cn1 36.2%

---

System: 317291-083-R-J1-PDC complex spheroids, viability
Measurement Notes: Anticancer human tumor 317291-083-R-J1-PDC cell line growth inhibition [GQUAD];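 further: spheroids exposed to compounds for one week before readout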
Experimental Conditions: curve of first compound; second compound 0.0316 µM
Measured Endpoint: IC50 (nM)
Write it as a number; the unit nM goes unstated.

Consider the worked cases shown below.
CCCS(=O)(=O)Nc1ccc(F)c(C(=O)c2c[nH]c3ncc(-c4ccc(Cl)cc4)cc23)c1F + Cc1cnc(CNC(=O)c2c(=O)c3ccc(N4CCCN(C)CC4)nc3n3c2sc2ccccc23)cn1    4020
CC[C@@]1(O)C(=O)OCc2c1cc1n(c2=O)Cc2cc3c(CN(C)C)c(O)ccc3nc2-1 + CN(C)c1ccc(Nc2c3ccc(NC(=O)CCN4CCCC4)cc3nc3cc(NC(=O)CCN4CCCC4)ccc23)cc1    54.9

In the following, a different compound is considered.
Item C=CCn1c(=O)c2cnc(Nc3ccc(N4CCN(C)CC4)cc3)nc2n1-c1cccc(C(C)(C)O)n1 + Cc1[nH]c2ccc(F)cc2c1-c1nc2c3cccnc3c3ncccc3c2[nH]1 with 317291-083-R-J1-PDC complex spheroids, viability - IC50? 119
